Data origin, for the record: patent US10870639B2

Assay: Pharmacokinetic profile in mice (p.o. and i.v.)
Assay type: in vivo
Conditions: mouse, plasma, po, BA=(AUC p.o./AUC i.v.)×(Dose i.v./Dose p.o.)×100
bioavailability of 7% or higher: 1 (yes). Under 7%: 0 (no).

Known results for compounds:
INSERT INTO assay_data (compound, category_label) VALUES
  ('COc1cc(CN2CCN(CCO)CC2)cc(Nc2ncc(Cl)c(-c3c[nH]c4ccccc34)n2)c1 [Control Compound 1]', '0 (no)'),
  ('Cc1ccc2c(-c3nc(Nc4cc(C5CC5)cc(N5CCC(N(C)C)CC5)c4)ncc3Cl)c[nH]c2c1 [Control Compound 3]', '1 (yes)'),
  ('Cc1ccc2c(-c3nc(Nc4cc(CN5C[C@@H](C)NC(C)(C)C5)cc(C5CC5)c4)ncc3Cl)c[nH]c2c1 [Example 25]', '1 (yes)'),
  ('CN(C)C1CCN(c2cc(Nc3ncc(Cl)c(-c4c[nH]c5ccccc45)n3)cc(C3CC3)c2)CC1 [Control Compound 4]', '1 (yes)'),
  ('OCCN1CCN(Cc2cccc(Nc3ncc(Cl)c(-c4c[nH]c5ccccc45)n3)c2)CC1 [Control Compound 2]', '0 (no)'),
  ('C[C@@H]1CN(Cc2cc(Nc3ncc(Cl)c(-c4c[nH]c5ccccc45)n3)cc(C3CC3)c2)C[C@H](C)N1CCO [Example 4]', '1 (yes)');

Does the reported bioavailability for Cc1ccc2c(-c3nc(Nc4cc(CN5CCN(C(C)(C)CO)CC5)cc(C5CC5)c4)ncc3Cl)c[nH]c2c1 [Control Compound 5] fall at or above the 7% mark?
1 (yes)

---

Measured IC50 of individual entries
Target: FLT3 ITD (Homo sapiens, UniProt P36888, ITD)
Sequence (P36888 whole entry, looked up, change not shown): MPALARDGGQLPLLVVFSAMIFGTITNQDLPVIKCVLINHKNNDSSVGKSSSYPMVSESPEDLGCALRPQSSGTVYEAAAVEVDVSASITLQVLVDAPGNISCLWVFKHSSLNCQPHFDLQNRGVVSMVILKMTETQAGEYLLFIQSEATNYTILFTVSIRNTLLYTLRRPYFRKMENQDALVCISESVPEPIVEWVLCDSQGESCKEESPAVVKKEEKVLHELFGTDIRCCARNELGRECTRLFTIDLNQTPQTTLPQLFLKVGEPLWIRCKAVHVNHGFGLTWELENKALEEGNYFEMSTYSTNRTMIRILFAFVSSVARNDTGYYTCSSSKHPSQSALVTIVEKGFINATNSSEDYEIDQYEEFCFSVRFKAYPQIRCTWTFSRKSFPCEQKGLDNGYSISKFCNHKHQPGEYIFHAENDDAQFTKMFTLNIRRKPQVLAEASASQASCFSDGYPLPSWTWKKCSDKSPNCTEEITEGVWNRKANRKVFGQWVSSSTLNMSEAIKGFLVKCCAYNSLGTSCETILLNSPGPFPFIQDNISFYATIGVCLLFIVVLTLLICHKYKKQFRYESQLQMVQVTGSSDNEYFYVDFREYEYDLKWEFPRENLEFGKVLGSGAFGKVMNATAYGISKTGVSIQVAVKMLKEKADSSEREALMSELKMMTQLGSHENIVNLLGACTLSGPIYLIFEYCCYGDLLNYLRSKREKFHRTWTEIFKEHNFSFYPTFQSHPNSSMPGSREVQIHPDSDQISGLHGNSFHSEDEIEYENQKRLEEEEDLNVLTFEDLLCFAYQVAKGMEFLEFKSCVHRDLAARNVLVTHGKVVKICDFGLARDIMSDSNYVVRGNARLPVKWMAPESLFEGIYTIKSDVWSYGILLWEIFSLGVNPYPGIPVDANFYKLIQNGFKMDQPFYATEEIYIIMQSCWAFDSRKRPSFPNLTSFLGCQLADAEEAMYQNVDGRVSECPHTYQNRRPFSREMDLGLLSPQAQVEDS
Experiment: LanthaScreen kinase binding assay, FLT3 ITD

INSERT INTO measurements (compound, reported) VALUES
  ('Cc1ccc2c(-c3nc(Nc4cc(C5CC5)cc(CN5C[C@@H](C)N[C@@H](C)C5)c4O)ncc3Cl)c[nH]c2c1 [Example 23]', '> 50 nM'),
  ('COc1cc2c(-c3nc(Nc4cc(CN5C[C@@H](C)N[C@@H](C)C5)cc(C5CC5)c4)ncc3Cl)c[nH]c2cc1C [Example 17]', '> 50 nM');

# input for lookup
Specify measured IC50 for Cc1ccc2c(c1)NC(=O)C2c1nc(Nc2cc(CN3C[C@@H](C)N[C@@H](C)C3)cc(C3CC3)c2)ncc1Cl (stereo partly drawn) [Example 19] .
> 50 nM
